- Tested System: SARS-CoV-2 3CL Protease (Severe acute respiratory syndrome coronavirus 2, UniProt P0DTD1)
- Assay Overview: 3CL protease SARS-CoV-2 activity (M^Pro assay), fluorescence kit
- Type: biochemical
- Stated Conditions: Conc. 10; ∆T 30; positive control 100
Assay Metric: ∆RFU
Just the number, please, no unit after it.

Compound	Tested System	Measured Number
O=C(O)c1cc(O)c(O)c(O)c1 [Compound 8, gallic acid]	SARS-CoV-2 3CL Protease (Severe acute respiratory syndrome coronavirus 2, UniProt P0DTD1)	77.58

Exercise: # return recorded ∆RFU for input O=c1cc(-c2ccc(O)c(-c3c(O)cc(O)c4c(=O)cc(-c5ccc(O)cc5)oc34)c2)oc2cc(O)cc(O)c12 [Compound 2, amentoflavone]
Solution: 78.96

Exercise: # return recorded ∆RFU for input C[C@@H]1O[C@@H](O[C@H]2[C@H](Oc3cc(O)c4c(c3)O[C@H](c3ccc(O)cc3)CC4=O)O[C@H](CO)[C@@H](O)[C@@H]2O)[C@H](O)[C@H](O)[C@H]1O [Compound 5, naringin]
Solution: 66.86

Exercise: # return recorded ∆RFU for input O=C(O)/C=C/c1ccc(O)cc1 [Compound 7, p-coumaric acid]
Solution: 83.61

---

- Tested System: SARS-CoV-2 3CL Protease (Severe acute respiratory syndrome coronavirus 2, UniProt P0DTD1)
- Assay Overview: 3CL protease SARS-CoV-2 activity (M^Pro assay), fluorescence kit
- Type: biochemical
- Stated Conditions: Conc. 0.1; positive control 120
# key: entry, value: Kinetic Activity
Just the number, please, no unit after it.

Structure	Tested System	Assay Metric	Measured Number
O=c1cc(-c2ccc(O)cc2)oc2c([C@@H]3O[C@H](CO)[C@@H](O)[C@H](O)[C@H]3O)c(O)cc(O)c12	SARS-CoV-2 3CL Protease (Severe acute respiratory syndrome coronavirus 2, UniProt P0DTD1)	Kinetic Activity	117.109
Oc1cc(O)c2c(c1)O[C@H](c1ccc(O)c(O)c1)[C@@H](O)C2	SARS-CoV-2 3CL Protease (Severe acute respiratory syndrome coronavirus 2, UniProt P0DTD1)	Kinetic Activity	113.953

We now examine a further compound.
Exercise: # return recorded Kinetic Activity for input C[C@@H]1O[C@@H](OC[C@H]2O[C@@H](Oc3c(-c4ccc(O)c(O)c4)oc4cc(O)cc(O)c4c3=O)[C@H](O)[C@@H](O)[C@@H]2O)[C@H](O)[C@H](O)[C@H]1O
Solution: 116.077

---

- Tested System: SARS-CoV-2 3CL Protease (Severe acute respiratory syndrome coronavirus 2, UniProt P0DTD1)
- Assay Overview: 3CL protease SARS-CoV-2 activity (M^Pro assay), fluorescence kit
- Type: biochemical
- Stated Conditions: Conc. 1; ∆T 30; positive control 100
# key: entry, value: ∆RFU
Just the number, please, no unit after it.

Examples with their reported ∆RFU follow.
Structure	∆RFU
C[C@@H]1O[C@@H](OC[C@H]2O[C@@H](Oc3c(-c4ccc(O)c(O)c4)oc4cc(O)cc(O)c4c3=O)[C@H](O)[C@@H](O)[C@@H]2O)[C@H](O)[C@H](O)[C@H]1O	91.72
O=C(O)/C=C/c1ccc(O)cc1	94.92

We now examine a further molecule.
Exercise: # return recorded ∆RFU for input O=c1cc(-c2ccc(O)c(-c3c(O)cc(O)c4c(=O)cc(-c5ccc(O)cc5)oc34)c2)oc2cc(O)cc(O)c12
Solution: 94.15

---

# key: entry, value: Kinetic Activity
- Tested System: SARS-CoV-2 3CL Protease (Severe acute respiratory syndrome coronavirus 2, UniProt P0DTD1)
- Assay Overview: 3CL protease SARS-CoV-2 activity (M^Pro assay), fluorescence kit
- Assay type: biochemical
- Stated Conditions: Conc. 0.1; positive control 120
Just the number, please, no unit after it.

Examples with their reported Kinetic Activity follow.
Compound	Kinetic Activity
O=c1cc(-c2ccc(O)c(-c3c(O)cc(O)c4c(=O)cc(-c5ccc(O)cc5)oc34)c2)oc2cc(O)cc(O)c12 [Compound 2, amentoflavone]	117.505
O=C(O)/C=C/c1ccc(O)cc1 [Compound 7, p-coumaric acid]	118.477
C[C@@H]1O[C@@H](O[C@H]2[C@H](Oc3cc(O)c4c(c3)O[C@H](c3ccc(O)cc3)CC4=O)O[C@H](CO)[C@@H](O)[C@@H]2O)[C@H](O)[C@H](O)[C@H]1O [Compound 5, naringin]	117.637

Exercise: # return recorded Kinetic Activity for input CC1=CC(=O)c2c(O)cccc2C1=O [Plumbagin, reference compound]
Solution: 115.069

Exercise: # return recorded Kinetic Activity for input O=C(O)c1cc(O)c(O)c(O)c1 [Compound 8, gallic acid]
Solution: 117.505

---

- Tested System: SARS-CoV-2 3CL Protease (Severe acute respiratory syndrome coronavirus 2)
- Assay Overview: 3CL protease SARS-CoV-2 activity (M^Pro assay), fluorescence kit
- Type: biochemical
- Stated Conditions: Conc. 100; positive control 120
# key: entry, value: Kinetic Activity
Just the number, please, no unit after it.

Examples with their reported Kinetic Activity follow.
Compound	Kinetic Activity
O=C(O)c1cc(O)c(O)c(O)c1	29.8323
O=c1cc(-c2ccc(O)c(-c3c(O)cc(O)c4c(=O)cc(-c5ccc(O)cc5)oc34)c2)oc2cc(O)cc(O)c12	44.4244

Exercise: # return recorded Kinetic Activity for input CC1=CC(=O)c2c(O)cccc2C1=O [Plumbagin, reference compound]
Solution: 27.0243

Exercise: # return recorded Kinetic Activity for input Oc1cc(O)c2c(c1)O[C@H](c1ccc(O)c(O)c1)[C@@H](O)C2
Solution: 33.3003

Exercise: # return recorded Kinetic Activity for input C[C@@H]1O[C@@H](O[C@H]2[C@H](Oc3cc(O)c4c(c3)O[C@H](c3ccc(O)cc3)CC4=O)O[C@H](CO)[C@@H](O)[C@@H]2O)[C@H](O)[C@H](O)[C@H]1O
Solution: 25.8243

---

- Tested System: SARS-CoV-2 3CL Protease (Severe acute respiratory syndrome coronavirus 2)
- Assay Overview: 3CL protease SARS-CoV-2 activity (M^Pro assay), fluorescence kit
- Format: biochemical
- Stated Conditions: Conc. 1; ∆T 30; positive control 100
Assay Metric: ∆RFU
Just the number, please, no unit after it.

Examples with their reported ∆RFU follow.
> print(dat)
                                   compound  measured.number
1  C[C@@H]1O[C@@H](O[C@H]2[C@H](Oc3cc(O)c4c(c3)O[C@H](c3ccc(O)cc3)CC4=O)O[C@H](CO)[C@@H](O)[C@@H]2O)[C@H](O)[C@H](O)[C@H]1O            84.97
2  O=c1cc(-c2ccc(O)cc2)oc2c([C@@H]3O[C@H](CO)[C@@H](O)[C@H](O)[C@H]3O)c(O)cc(O)c12            91.88
3  Oc1cc(O)c2c(c1)O[C@H](c1ccc(O)c(O)c1)[C@@H](O)C2            89.31
4                   O=C(O)c1cc(O)c(O)c(O)c1            91.03

We now examine a further compound.
Exercise: # return recorded ∆RFU for input CC1=CC(=O)c2c(O)cccc2C1=O [Plumbagin, reference compound]
Solution: 85.71

---

# key: entry, value: Kinetic Activity
- Tested System: SARS-CoV-2 3CL Protease (Severe acute respiratory syndrome coronavirus 2)
- Assay Overview: 3CL protease SARS-CoV-2 activity (M^Pro assay), fluorescence kit
- Format: biochemical
- Stated Conditions: Conc. 10; positive control 120

Compound	Result
CC1=CC(=O)c2c(O)cccc2C1=O [Plumbagin, reference compound]	77.9528

We now examine a further compound.
Exercise: # return recorded Kinetic Activity for input C[C@@H]1O[C@@H](OC[C@H]2O[C@@H](Oc3c(-c4ccc(O)c(O)c4)oc4cc(O)cc(O)c4c3=O)[C@H](O)[C@@H](O)[C@@H]2O)[C@H](O)[C@H](O)[C@H]1O [Compound 4, rutin]
Solution: 92.9049

---

- Tested System: SARS-CoV-2 3CL Protease (Severe acute respiratory syndrome coronavirus 2)
- Assay Overview: 3CL protease SARS-CoV-2 activity (M^Pro assay), fluorescence kit
- Format: biochemical
- Stated Conditions: Conc. 10; ∆T 30; positive control 100
# key: entry, value: ∆RFU
Just the number, please, no unit after it.

Compound	∆RFU
Oc1cc(O)c2c(c1)O[C@H](c1ccc(O)c(O)c1)[C@@H](O)C2	69.36

Exercise: # return recorded ∆RFU for input C[C@@H]1O[C@@H](OC[C@H]2O[C@@H](Oc3c(-c4ccc(O)c(O)c4)oc4cc(O)cc(O)c4c3=O)[C@H](O)[C@@H](O)[C@@H]2O)[C@H](O)[C@H](O)[C@H]1O
Solution: 77.42

Exercise: # return recorded ∆RFU for input CC1=CC(=O)c2c(O)cccc2C1=O [Plumbagin, reference compound]
Solution: 64.96

Exercise: # return recorded ∆RFU for input O=c1cc(-c2ccc(O)cc2)oc2c([C@@H]3O[C@H](CO)[C@@H](O)[C@H](O)[C@H]3O)c(O)cc(O)c12
Solution: 82.61
